Hey, just so you know, these numbers are from patent US12577259B2.

Target Under Test: PCSK9 (Homo sapiens, UniProt Q8NBP7)
Construct: biotin (biotinylated); purchased
Sequence (Q8NBP7 153-692): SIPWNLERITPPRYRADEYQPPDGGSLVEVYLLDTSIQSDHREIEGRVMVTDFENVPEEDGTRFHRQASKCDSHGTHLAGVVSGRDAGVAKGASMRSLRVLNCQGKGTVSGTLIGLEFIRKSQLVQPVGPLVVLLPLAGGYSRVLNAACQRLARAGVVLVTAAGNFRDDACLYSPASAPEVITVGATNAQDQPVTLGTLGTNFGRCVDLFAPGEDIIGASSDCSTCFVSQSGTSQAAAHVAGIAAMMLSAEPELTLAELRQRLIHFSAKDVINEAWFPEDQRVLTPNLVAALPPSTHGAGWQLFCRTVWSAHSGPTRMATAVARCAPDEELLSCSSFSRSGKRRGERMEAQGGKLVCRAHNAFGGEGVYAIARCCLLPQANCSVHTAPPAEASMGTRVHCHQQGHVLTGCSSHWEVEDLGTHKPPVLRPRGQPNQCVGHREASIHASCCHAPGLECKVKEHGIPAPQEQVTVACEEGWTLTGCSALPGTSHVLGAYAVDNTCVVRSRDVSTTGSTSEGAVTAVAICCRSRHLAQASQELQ
Protocol Description: PCSK9 Alexa FRET Plus TR-FRET assay
Type: binding
Study Conditions: biotinylated PCSK9 0.5 nM, 960 nM AF cyclic peptide Reagent B; Ki calculated from IC50 and KD of AF peptide
pKi: −log10 of the molar value.
# reported pKi; entries follow

| Compound | pKi |
| --- | --- |
| COc1ccc(C[C@@H]2NC(=O)[C@H]([C@@H](C)OCc3cn(CCNC(=O)CCOCCOCC[N+](C)(C)C)nn3)NC(=O)[C@@H]3[C@@H]4CCN3C(=O)[C@@H]3Cc5cn(c6ccc(F)cc56)CCCCCCN(Cc5ccc(cc5)CCNC(=O)[C@]5(C)CCCN5C2=O)C(=O)CCC(=O)N[C@@H](C)C(=O)N[C@H](CNC(=O)COCCOCCNC(=O)COCCOCCNC(=O)CC[C@H](NC(=O)CCCCCCCCCCCCCCCCC(=O)O)C(=O)O)C(=O)N[C@@H](Cc2cccc(c2)CNC(=O)CO4)C(=O)N3)cc1 | > 11.22 |
| COc1ccc(C[C@@H]2NC(=O)[C@H]([C@@H](C)Oc3cn(CCNC(=O)CCOCCOCC[N+](C)(C)CCNC(=O)COCCOCCNC(=O)COCCOCCNC(=O)CCC(NC(=O)CC[C@H](NC(=O)CCCCCCCCCCCCCCCCC(=O)O)C(=O)O)C(=O)O)nn3)NC(=O)[C@@H]3[C@@H]4CCN3C(=O)[C@@H]3Cc5cn(c6ccc(F)cc56)CCCCCCN(Cc5ccc(cc5)CCNC(=O)[C@]5(C)CCCN5C2=O)C(=O)CCC(=O)N[C@@H](C)C(=O)N[C@H](CNC(=O)CCOCCOCC[N+](C)(C)C)C(=O)N[C@@H](Cc2cccc(c2)C/C=C/CO4)C(=O)N3)cc1 (stereo partly shown) | > 11.22 |
| COc1ccc(C[C@@H]2NC(=O)[C@H]([C@@H](C)OCc3cn(CCNC(=O)COCCOCCNC(=O)COCCOCCNC(=O)CC[C@H](NC(=O)CCCCCCCCCCCCCCCCC(=O)O)C(=O)O)nn3)NC(=O)[C@@H]3[C@@H]4CCN3C(=O)[C@@H]3Cc5cn(c6ccc(F)cc56)CCCCCCN(Cc5ccc(cc5)CCNC(=O)[C@]5(C)CCCN5C2=O)C(=O)CCC(=O)N[C@@H](C)C(=O)N[C@H](CNC(=O)CCOCCOCC[N+](C)(C)C)C(=O)N[C@@H](Cc2cccc(c2)CNC(=O)CO4)C(=O)N3)cc1 | > 11.22 |
| COc1ccc(C[C@@H]2NC(=O)[C@H]([C@@H](C)O)NC(=O)[C@@H]3[C@@H]4CCN3C(=O)[C@@H]3Cc5cn(c6ccc(F)cc56)Cc5cn(nn5)Cc5cc(ccc5CNC(=O)CCCCCC(=O)N[C@H](CNC(=O)COCCOCC[N+](C)(C)CCNC(=O)COCCOCCNC(=O)COCCOCCNC(=O)CCC(NC(=O)CCCCCCCCOCCCCCCCCC(=O)O)C(=O)O)C(=O)N[C@@H](Cc5cccc(c5)C/C=C/CO4)C(=O)N3)CCNC(=O)[C@]3(C)CCCN3C2=O)cc1 (stereo partly shown) | 10.62 |
| COc1ccc(C[C@@H]2NC(=O)[C@H]([C@@H](C)O)NC(=O)[C@@H]3[C@@H]4CCN3C(=O)[C@@H]3Cc5cn(c6ccc(F)cc56)Cc5cn(nn5)Cc5cc(ccc5CNC(=O)CCCCCC(=O)N[C@H](CNC(=O)COCCOCCNC(=O)CC[C@H](NC(=O)CCOCCOCC[N+](C)(C)CCNC(=O)COCCOCCNC(=O)COCCOCCNC(=O)CCC(NC(=O)CCCCCCCCCCCCCCCCC(=O)O)C(=O)O)C(=O)O)C(=O)N[C@@H](Cc5cccc(c5)C/C=C/CO4)C(=O)N3)CCNC(=O)[C@]3(C)CCCN3C2=O)cc1 (stereo partly shown) | 9.69 |
| COc1ccc(C[C@@H]2NC(=O)[C@H]([C@@H](C)O)NC(=O)[C@@H]3[C@@H]4CCN3C(=O)[C@@H]3Cc5cn(c6ccc(F)cc56)CCCCCCN(Cc5ccc(cc5)CCNC(=O)[C@]5(C)CCCN5C2=O)C(=O)CCOCCC(=O)N[C@H](CNC(=O)CCOCCOCC[N+](C)(C)CCNC(=O)COCCOCCNC(=O)COCCOCCNC(=O)CCC(NC(=O)CCCCCCCCCCCCCCC(=O)O)C(=O)O)C(=O)N[C@@H](Cc2cccc(c2)CNC(=O)CO4)C(=O)N3)cc1 (stereo partly shown) | > 11.22 |
| COc1ccc(C[C@@H]2NC(=O)[C@H]([C@@H](C)O)NC(=O)[C@@H]3[C@@H]4CCN3C(=O)[C@@H]3Cc5cn(c6ccc(F)cc56)CCCCCCN(Cc5ccc(cc5)CCNC(=O)[C@]5(C)CCCN5C2=O)C(=O)CCOCCC(=O)N[C@H](CNC(=O)CCOCCOCC[N+](C)(C)CCNC(=O)COCCOCCNC(=O)COCCOCCNC(=O)CC[C@H](NC(=O)CC[C@H](NC(=O)CCCCCCCCCCCCCCCCC(=O)O)C(=O)O)C(=O)O)C(=O)N[C@@H](Cc2cccc(c2)CNC(=O)CO4)C(=O)N3)cc1 | > 11.22 |
